# experimental details: in vitro
# condition set: human
endpoint: CC50

| molecule | measured result |
| --- | --- |
| Cc1nnc(C(=O)NC(C)(C)c2nc(C(=O)NCc3ccc(F)cc3)c(O)c(=O)n2C)o1 [Raltegravir, reference compound] | > 500 µM |

* * *

# Tested on: single cycle replicable HIV NL4-3 virions
# experimental details: single-cycle HIV-1 replication assay in HeLa cells (p24 ELISA)
# Format: cell-based
# condition set: Human immunodeficiency virus 1, NL43, HeLa, 72 h, read-out: Anti-HIV-1 activity (EC50)
pEC50: −log10 of the molar value.
endpoint: pEC50

| compound | endpoint | measured result |
| --- | --- | --- |
| COc1cccc(Cn2c(C(=O)C=C(O)C(=O)O)nc3ccccc32)c1 [Compound 13i] | pEC50 | 4.05 |
| O=C(O)C(O)=CC(=O)c1nc2ccccc2n1Cc1ccccc1 [Compound 13a] | pEC50 | 3.96 |
| Cc1cccc(Cn2c(C(=O)C=C(O)C(=O)O)nc3ccccc32)c1 [Compound 13c] | pEC50 | 4.12 |
| Cc1ccccc1Cn1c(C(=O)C=C(O)C(=O)O)nc2ccccc21 [Compound 13b] | pEC50 | 4.22 |
| Cc1ccc(Cn2c(C(=O)C=C(O)C(=O)O)nc3ccccc32)cc1 [Compound 13d] | pEC50 | 4.30 |
| O=C(O)C(O)=CC(=O)c1nc2ccccc2n1Cc1ccccc1Cl [Compound 13e] | pEC50 | 3.81 |
| O=C(O)C(O)=CC(=O)c1nc2ccccc2n1Cc1cccc(Cl)c1 [Compound 13f] | pEC50 | 4.26 |
| Cc1nnc(C(=O)NC(C)(C)c2nc(C(=O)NCc3ccc(F)cc3)c(O)c(=O)n2C)o1 [Raltegravir, reference compound] | pEC50 | 6.05 |
| O=C(O)C(O)=CC(=O)c1nc2ccccc2n1Cc1cccc(F)c1 [Compound 13h] | pEC50 | 4.26 |
| O=C(O)C(O)=CC(=O)c1nc2ccccc2n1Cc1ccccc1F [Compound 13g] | pEC50 | 4.40 |

* * *

# experimental details: in vitro
# condition set: human
# strict inequality: CC50 at 72 h < 500 µM yields satisfied, everything else yields not satisfied

| molecule | assigned category |
| --- | --- |
| O=C(O)C(O)=CC(=O)c1nc2ccccc2n1Cc1cccc(F)c1 [Compound 13h] | satisfied |
| O=C(O)C(O)=CC(=O)c1nc2ccccc2n1Cc1ccccc1Cl [Compound 13e] | satisfied |
| O=C(O)C(O)=CC(=O)c1nc2ccccc2n1Cc1cccc(Cl)c1 [Compound 13f] | satisfied |
| O=C(O)C(O)=CC(=O)c1nc2ccccc2n1Cc1ccccc1F [Compound 13g] | not satisfied |
| Cc1cccc(Cn2c(C(=O)C=C(O)C(=O)O)nc3ccccc32)c1 [Compound 13c] | satisfied |
| Cc1ccc(Cn2c(C(=O)C=C(O)C(=O)O)nc3ccccc32)cc1 [Compound 13d] | not satisfied |
| Cc1ccccc1Cn1c(C(=O)C=C(O)C(=O)O)nc2ccccc21 [Compound 13b] | not satisfied |
